The measurements presented in this section are drawn from PubChem BioAssay (NCI).

# Test system: SF-539 CNS
# assay_procedure: NCI-60 one-dose screen, 48 h
# cond: 10 µM unless noted
About 83,000 compounds went through this panel and 20% of them were active in at least one assay; those are over-represented in the sample as a whole. Activity calls are given as the source filed them. Rule for the calls: active = growth percent below 10; inactive = the rest.
Select the matching outcome among active, inactive

Sample answers from the record:
compound: C=CC(=O)Nc1ccc(Oc2nccc(Nc3nnc(-c4ccc(C)cc4)s3)n2)cc1
category: inactive

compound: COc1ccc(C(O)c2cc3c(N)c(C(=O)Nc4cccc(Cl)c4C)sc3nc2C)cc1 (configuration not stated)
category: active

compound: O=C1/C(=C/c2ccc(F)cc2)CN(C(=O)C(Cl)Cl)C/C1=C\c1ccc(F)cc1
category: active

compound: O=c1nc(-c2ccccc2)c2cc(-c3ccc(C(F)(F)F)nc3)ccc2[nH]1
category: inactive

compound: COc1ccc(C(=O)Cn2c(C(=O)c3ccc(OC)cc3)nc3ccccc32)cc1
category: inactive

compound: C[C@H](CCCC(=O)NCC#CCN1CCN(C)CC1)[C@H]1CC[C@H]2[C@@H]3CC[C@@H]4CC(=O)CC[C@]4(C)[C@H]3CC[C@]12C
category: inactive

What is the recorded call for this compound in the test? CN(C)CCCC1(c2ccc(F)cc2)OCc2cc(-c3cc4ccccc4s3)ccc21 (configuration not stated)
active

Hi team, can someone confirm the assay call for COc1ccc(-c2nc(-c3cn(C)c4ncccc34)cs2)cc1 ?
active

* * *

# System: NCI-H460 lung
# assay_procedure: NCI-60 one-dose screen, 48 h (100 = growth as untreated, 0 = no growth, -100 = all killed)
# cond: 10 µM unless noted
This is part of a sample that, as a whole, favours compounds with a hit. Of some 83,000 tested, about 20% had one in any assay.
Consider the cut-off 90%. If the recorded growth is strictly smaller, the label is Criterion met; if not, the label is Criterion not met.

compound: O=C1Nc2c(C(=O)O)cccc2/C1=N/c1n[nH]c(=S)s1
target_or_system: NCI-H460 lung
category: Criterion not met
--
compound: CC1(C)CC[C@]2(C(=O)N[C@H](CO)Cc3ccccc3)CC[C@]3(C)C(=CC[C@@H]4[C@@]5(C)CCCNC(C)(C)[C@@H]5CC[C@]43C)[C@@H]2C1
target_or_system: NCI-H460 lung
category: Criterion met
--
compound: C/C=C(/C)n1cnc2c(Nc3ccccn3)nc(Cl)nc21
target_or_system: NCI-H460 lung
category: Criterion not met
--
compound: Nc1nc(N)c(N=Nc2ccccc2)c(-c2ccccc2)n1
target_or_system: NCI-H460 lung
category: Criterion met
--
compound: COc1ccc(Cn2cc(C(=O)N=Nc3c(O)[nH]c4c(C)cccc34)nn2)cc1
target_or_system: NCI-H460 lung
category: Criterion met

Does this compound meet the criterion growth < 90%? C=C(c1ccc(OC)c(/C=C/C(=O)c2ccc3c(c2)OCO3)c1)c1cc(OC)c(OC)c(OC)c1
Criterion met

Item CC1CCN(C(=O)CCCl)c2ccccc21 (stereo not given) : growth beneath 90%, strictly?
Criterion not met

Please state whether growth is below 90% for CN1C(=O)/C(=C2\SC(=Nc3ccccc3)N(Nc3ccccc3)C2=O)c2ccccc21
Criterion not met

Identify whether the compound Nn1c(=O)c(=O)[nH]c2c(cnn2-c2ccccc2)c1=O records growth below 90%.
Criterion not met

Does Cc1ccc(S(=O)(=O)N2CCC(=O)c3ccccc32)cc1 have growth strictly under 90%?
Criterion met

* * *

# System: NCI-H522 lung
# assay_procedure: NCI-60 one-dose screen, 48 h
# cond: 10 µM unless noted
Compounds without any hit were thinned out: in the full panel of roughly 83,000, 20% have a hit. Calls of active or inactive are those of the source. Rule for the calls: active = growth percent below 10; inactive = the rest.
Outcome (select one): T = active, F = inactive

Example entries and their recorded answers appear below.
molecule: O=C(C1=Cc2cc3ccccc3n2Cc2cnnn21)c1ccc(O)cc1
category: F

molecule: Cc1cn(-c2cc(NC(=O)c3cncc(C#Cc4c(N)ncc5ccc(F)cc45)c3)cc(C(F)(F)F)c2)cn1
category: F

molecule: CCN1C(=O)N(CC)C2C1NN=c1s/c(=C\c3ccc[nH]3)c(=O)n12 (centres undefined)
category: T

molecule: C[C@H](C(=O)N(CCc1ccc(Cl)c(Cl)c1)Cc1cncs1)[C@@H]1CC[C@H](C[C@H](C)n2cc(CN3CCC(c4ccc(Cl)cc4)CC3)nn2)O1
category: F

// next entry
Could you please tell me the result logged for CSC(SC)=C(C#N)c1nc2ccccc2s1 in this assay?
T

* * *

# Test system: NCI-H23 lung
# assay_procedure: NCI-60 one-dose screen, 48 h (100 = growth as untreated, 0 = no growth, -100 = all killed)
# cond: 10 µM unless noted
About 83,000 compounds went through this panel and 20% of them were active in at least one assay; those are over-represented in the sample as a whole.
metric: growth (%)
All answers are understood in %, so give the number only.

Below, each entry is followed by its recorded growth result.
smiles_record: COC(=O)c1c2c(c(C)[n+]([O-])c1C)C(=O)C(NCc1ccc(OC)cc1)=CC2=O
readout_number: 27.5
//
smiles_record: COc1cc(NC(=O)c2cncnc2Nc2ccc3c(ccn3Cc3ccccn3)c2)cc(OC)c1
readout_number: 68.6
//
smiles_record: CC1(C)CC(=O)c2c(nn(-c3ccc(Br)cc3)c2-c2cn(-c3ccccc3)nc2-c2cccnc2)C1
readout_number: 90.4
//
smiles_record: N=C(N)c1ccc(-c2ccc(-c3cc(Cl)cc(Cl)c3)s2)nc1
readout_number: 75.5
//
smiles_record: C=CC(=O)Nc1ccc(Oc2nccc(Nc3nnc(-c4ccc(C)cc4)s3)n2)cc1
readout_number: 79.9

What growth appears in the records for this compound with NCI-H23 lung? Cc1ccc(/C=C/C(=O)c2ccc(-n3cc(CN4CCN(c5cc6c(cc5F)c(=O)c(C(=O)O)cn6C5CC5)CC4)nn3)cc2)cc1
81.5

Identify the measured growth of [2H]C([2H])([2H])Oc1ccc(F)cc1/C=C/C(=O)/C=C(/C=C/c1cc(F)ccc1OC([2H])([2H])[2H])OB(F)F for NCI-H23 lung.
76.6

What value of growth on NCI-H23 lung does Cc1ccc(/C=C(\C#N)n2nnc3cc(F)c(F)cc32)cc1 have?
27.1

Find the measured growth: item O=C(/C=C(O)/C=C/c1cccc2[nH]ccc12)/C=C/c1cccc2[nH]ccc12 , target or system NCI-H23 lung.
80.5

* * *

# System: ACHN renal
# assay_procedure: NCI-60 one-dose screen, 48 h
# cond: 10 µM unless noted
Compounds without any hit were thinned out: in the full panel of roughly 83,000, 20% have a hit. Activity calls are given as the source filed them. The calls were made as follows: active = growth percent below 10; inactive = the rest.
Valid outcomes are listed here; reply with one: yes (1) (active), no (0) (inactive)

What call does the record list for CCSc1oc(C)nc1[P+](c1ccccc1)(c1ccccc1)c1ccccc1 ?
no (0)

Assay outcome for CN1CCN(Cc2ccc(NC(=O)c3cncc(C#Cc4cnc(N)c5ccc(F)cc45)c3)cc2C(F)(F)F)CC1 : what was it?
yes (1)

Look up the recorded call for CCN1CCN(C(=O)[C@]23CC[C@@H](C)[C@H](C)[C@@H]2C2=CC[C@@H]4[C@@]5(C)C/C(=C/c6cccnc6)C(=O)C(C)(C)[C@@H]5CC[C@@]4(C)[C@]2(C)CC3)CC1 in this test.
no (0)

# outcome recorded in this test, key = S=c1nc2oc(-c3ccccc3)c(-c3ccccc3)c2c(/N=C\c2ccco2)[nH]1
no (0)

Could you check what this test reported for CCN1CCN(c2cc(C)nc(N(CCNc3ccnc4cc(Cl)ccc34)Cc3ccc4c(c3)OCO4)n2)CC1 ?
yes (1)

For C=C(C)[C@@H]1CC[C@]2(COC(C)=O)CC[C@]3(C)[C@H](CC[C@@H]4[C@@]5(C)CCCN(C(C)=O)C(C)(C)[C@@H]5CC[C@]43C)[C@@H]12 , which call appears in the assay record?
no (0)

Would you mind telling me which call this test gave O=S(=O)(NCCNc1nccc(-c2c(-c3cccc(O)c3)nc3occn23)n1)c1ccc(Br)cc1 ?
no (0)

Which outcome was entered for the compound COc1ccc(C(=O)c2cc3c(N)c(C(=O)Nc4ccccc4)sc3nc2C)cc1 in this test?
no (0)

Per the records of this test, what outcome belongs to C/C(Cc1ccc(Cl)cc1)=C(\c1ccc(OCCCN(C)C)cc1)c1ccc(OC(=O)Cc2ccccc2)cc1 ?
no (0)

Answer briefly: the call reported for CCOC(=O)c1c(C)nc2ccccc2c1/C=C/c1cccs1 in this assay.
no (0)

Identify the outcome logged in this assay for the compound shown: COc1cc(C(=O)c2c(-c3ccccc3)oc3c(OC)cccc23)cc(OC)c1OC
no (0)

What did the test return for N#Cc1cccc(C2C3=C(COC3=O)N(CCO)c3cc4c(cc32)CCC4)c1 (stereo not drawn) ?
no (0)

Identify the outcome logged in this assay for the compound shown: CCN(CC)c1ccc(/C=N/NC(=O)Cc2ccc(Nc3ccnc(C(F)(F)F)c3)cc2)c(O)c1
no (0)

Can you look up the reported call for Nc1nc(N)c(N=Nc2ccccc2)c(-c2ccccc2)n1 for me?
no (0)

Dear colleague, could you share the recorded outcome for COc1cc2c(cc1OCCCCN1CCN(C(=S)SCCC(C#N)(c3ccccc3)c3ccccc3)CC1)N=C[C@@H]1CCCN1C2=O when you have a moment?
yes (1)

Returns: the outcome recorded for Cc1n[nH]c2ccc(Br)cc2c1=O in this assay.
no (0)

State the result this test recorded for CO[C@H](C(=O)[C@@H](O)[C@@H](C)O)[C@@H]1Cc2cc3cc(O[C@H]4C[C@@H](O[C@H]5C[C@@H](O)[C@H](O)C(C)O5)[C@H](O)C(C)(O)O4)cc(O)c3c(O)c2C(=O)[C@H]1O[C@H]1C[C@@H](O[C@H]2C[C@@H](O[C@H]3C[C@@H](OC)[C@H](O)C(C)O3)[C@@H](O)C(C)O2)[C@H](O)C(C)O1 (stereo partly drawn) .
no (0)

For this compound, state the assay outcome: Nc1nc(NC(=O)Nc2ccc(C(=O)O)cc2)nn1-c1ccc(S(N)(=O)=O)cc1
no (0)
